Data origin: the nanobody polyreactivity screen of Harvey et al. (2022)

PROCEDURE_SUMMARY: yeast display, Sf9 membrane polyspecificity reagent, FACS + sequencing; frameworks hold sequencing errors

SEQUENCE_RECORD: QVQLVESAAGLVQAGGSLRLSCPASGITFYYYAKGWYRQEPGKESELVAAISGGGDSTYYADSVKGRFTISRDNAKNTVYLQMNSLKPEDTAVYYCAAGQDYWVPDDSLFYYWGQGTQVTVSS
polyreactivity (PSR sort gate): low polyreactivity
//
SEQUENCE_RECORD: QVQLVESGGGIVQAGGSLRLSCAASGRTFRKNAMAWYRQAPGKERELVAAISASGTSTNYADSVKGRFTISRDNAKNTVYLQMISLIPEDTSVYYCDARSYGIYDYWGQGTQVTVSS
polyreactivity (PSR sort gate): high polyreactivity
//
SEQUENCE_RECORD: QVQLVESGGGLVQAGGSLRLSCAASGIIFWYNAMGWYRQAPWKERELVASISTGGRTYYADSVKGRFTISRDNAKNTVYLQMNSLKPEDTAVYYCAAASRVGFLYYYWGQGTQVTVSS
polyreactivity (PSR sort gate): low polyreactivity
//
SEQUENCE_RECORD: QVQLVESGGGLVQAGGSLRLSCAASVFTIPRYAMGWYRQAPGKETELFAAITSGGSTYYADSVKGRFTISRDNAKNTVYLQMNSLKPEDTAVYYWASRAVWSSWGSRYDSWGHGTQVTVSS
polyreactivity (PSR sort gate): high polyreactivity
//
SEQUENCE_RECORD: QVQLQERGDGLGQAVGSLRLSCAASGYISGYYYLGWYRQAPGKEGVVVAGIDAFGSRTNFADCVKGRFTISRDNAKNPVDLQMNSLKPEETAVYYCAARPDGDRLFSYWGQGPQVTVSS
polyreactivity (PSR sort gate): low polyreactivity

* * *

PROCEDURE_SUMMARY: yeast display, Sf9 membrane polyspecificity reagent, FACS + sequencing; frameworks hold sequencing errors

SEQUENCE_RECORD: QVQLVESGGGLVQAGGSLRLSCAASGRIFWYYAMGWYRQAPGKEREFVAAITRRGGSTYYADSVKGRFTISRDNAKNTVYLQMNSLKPEDTAVYYCAAVGQKRSLGYSWGQGTQVTVSS
polyreactivity (PSR sort gate): low polyreactivity
--
SEQUENCE_RECORD: QVQLVESGGGLVQAGGSLRLSCAASGFTIDGYAMGGYRQAPGKERELVAAISGGGSTYYADSVKGRFTISRDNAKNTVYLQMNSLKPEDTAVYYCAAARITRGRRYDYWGQGTQVTVSS
polyreactivity (PSR sort gate): high polyreactivity
--
SEQUENCE_RECORD: QVQLVESGGGLVQAGGSLRLSCAASGSTFVKYAMGWYRQAPGKERELVAAITASGGRTYYADSVKGRFTISRDNAKNTVYLQMISLKPEDTAVYYCNARGYHYGTLFDYWGQGTQVTVSS
polyreactivity (PSR sort gate): high polyreactivity
--
SEQUENCE_RECORD: QVQLQESGGGLVQAGGSLRLSCAASGSISGPHVMGWYRQAPGKEREFVAAINVGANTYYADNVKGRFTISRDNAKNTVYLQMNSLKPEDTAVYYCAAEYGIYETGHYGIYDYWGQGTQVTVSS
polyreactivity (PSR sort gate): low polyreactivity
--
SEQUENCE_RECORD: QVQLVESGGGLVQAGGILRLSCAASGGTFTYNAMGWYRQAPGKERELVAAITNGGGSTYYADSVKGRFTISRDNAKNTVYLQMNSLKPEDTAVYYCAARWWYYYTEYDYWGQGTQVTVSS
polyreactivity (PSR sort gate): low polyreactivity
--
SEQUENCE_RECORD: QVQLVESGGGLVQAGGSLRLSCAASGRTFGYYAMGWYIQAPGKERELVAAISGSGGSTYYADSVKGRFTISRDNAKNTVYLQMNSLKPEDTEVYYCAARYIYYYAFGYNYWGQGTQVTVSS
polyreactivity (PSR sort gate): high polyreactivity
--
SEQUENCE_RECORD: QVQLVESGGGLVQAGGSLRLSCAASGIFLGYALGWYRQAPGKERELVAAITSGDSTYYADSVKGRFTISRDNAKNTVYLQMNSLKPEDTAVYYCAKTRYSWPRVWYNYWGQGTQVTVSS
polyreactivity (PSR sort gate): low polyreactivity
--
SEQUENCE_RECORD: QVQLVESGGGLVQAGGSLRVSCAASGRTFRPNAMGWYRQAPGKERELVAAISGGGGSTYYADSVKGRFTISRDIAKNTVYLLMNSLKPEVTAVYYCNKVEQGRYGYWGQGTQVTVSS
polyreactivity (PSR sort gate): high polyreactivity
--
SEQUENCE_RECORD: QVQLVESGGGLVQAGGSLRLSCAASGFIFGLYDMGWYRQAPGKERELVARISWGGGTYYADSVKGRFTISRDNAKNTVYLQMNSLKPEDTAVYYCNTRTRGYYYNSYYWTKYGYWGQGTQVTVSS
polyreactivity (PSR sort gate): high polyreactivity
--
SEQUENCE_RECORD: QLQLVESGGGLVQAAGSLRLSSAASGSIFPDNAKGWYRQAPAKERELVATITSGGDTNYADSVKGRFTISRDNAKNTVYLQMNSLKPEDTAVYYCAADVYPDWLVKYDYWGQGTQVTVSS
polyreactivity (PSR sort gate): low polyreactivity
--
SEQUENCE_RECORD: QVQLVESGGGLVQAGGSLRLSCAASGFTFWAYAMGWYRQAPGKERELVAPISWSGGITYYADSVKGRFTISRDNAKNTVYLQMNSLKPEDTAVYYCAADPYVLVWVEDYDYWVQGTQVTVSS
polyreactivity (PSR sort gate): high polyreactivity
--
SEQUENCE_RECORD: QVQLVESGGGLVQAGGSLGLSCAASGRTIDYYALGWYRQAPGKERELVAAITWDGSTYYADSVKGRFTISRDNAKITVYLQMISLKPEVTAVYYCAADFYWYLDLYDFWGQGTQVTVSS
polyreactivity (PSR sort gate): high polyreactivity
--
SEQUENCE_RECORD: QVQLVESGGGLVQAGGSLRLSCAASGRTFQSNGMGWYRQAPGKERELVAAITWSSGTTYYADSVKGRFTISRDNAKNTVYLQMNSLKPEDTAVYYCAADWGHWNSLFYSGFGYWGQGTQVTVSS
polyreactivity (PSR sort gate): low polyreactivity
--
SEQUENCE_RECORD: QVQLEESGGGLVQAGGSLRLSCAASGPIFVGYAMGWSRQAPGKEREFLAAISRDGDNTFYADSVKGRFTISRDYAKNTVYLQMYSLKPEDTAVYYCAVDYWVWYGCAYAYDYYWGQGTQVSVSS
polyreactivity (PSR sort gate): low polyreactivity
--
SEQUENCE_RECORD: QVQLVESGGGLVQAGVSLRLSCAASGRTFFLYAMGWYRQAPGKERELVARISTSGGGTYYADSVKGRFTISRDNAKYTVYLQMNSLKPEDTAVYYCAARTFRGQRRAGGYDYWGQGTQVTVSS
polyreactivity (PSR sort gate): high polyreactivity
--
SEQUENCE_RECORD: QVQLVESGGGLVQAGGSLRLSCAASGRIFRAYAMGWYRQAPGKERELVAAITSGVSTNYADSVKGRFTISRDNAKNTVYLQMNSLKPEDTAVYYCAADIYVIYEYWGQGTQVTVSS
polyreactivity (PSR sort gate): low polyreactivity
